molecular target: ECH1 Delta(3,5)-Delta(2,4)-dienoyl-CoA isomerase, mitochondrial (Homo sapiens); construct: isoTOP-ABPP experiments performed in cell lysates (in vitro); endogenous in cells; host or cells: soluble proteome of human cancer cell lines (MDA-MB-231, Ramos, Jurkat); test: competitive isoTOP-ABPP; format: binding; settings: 50 uM, in vitro, sol, 231
Sequence (Q13011 34-328): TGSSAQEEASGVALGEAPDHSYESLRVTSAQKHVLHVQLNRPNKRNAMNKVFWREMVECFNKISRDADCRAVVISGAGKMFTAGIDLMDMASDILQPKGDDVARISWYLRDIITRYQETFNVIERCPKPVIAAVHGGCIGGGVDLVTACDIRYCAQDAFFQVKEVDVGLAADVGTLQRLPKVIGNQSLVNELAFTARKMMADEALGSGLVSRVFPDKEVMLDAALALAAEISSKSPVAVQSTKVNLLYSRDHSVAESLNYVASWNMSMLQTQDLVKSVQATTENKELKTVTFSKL
result_type: isoTOP-ABPP ratio (R) at liganded lysine Q13011_K112

{"columns": ["molecule", "data_value"],
 "data": [
  ["O=C(Oc1ccc([N+](=O)[O-])cc1[N+](=O)[O-])c1ccccc1Nc1cccc(C(F)(F)F)c1", 1.0],
  ["O=C(CC12CC3CC(CC(C3)C1)C2)Oc1ccc([N+](=O)[O-])cc1[N+](=O)[O-]", 0.9],
  ["CC(C)(C)OC(=O)NCCCC(=O)Oc1ccc([N+](=O)[O-])cc1[N+](=O)[O-]", 1.0],
  ["O=C(Oc1ccc([N+](=O)[O-])cc1[N+](=O)[O-])c1ccc(-c2ccccc2)cc1", 0.9],
  ["O=C(Oc1ccc([N+](=O)[O-])cc1[N+](=O)[O-])C1CCN(C(=O)OCc2ccccc2)CC1", 1.1],
  ["O=C(Oc1ccc([N+](=O)[O-])cc1[N+](=O)[O-])c1ccc2ccccc2n1", 1.0],
  ["CC(=O)Oc1ccc([N+](=O)[O-])cc1[N+](=O)[O-] [fragment 43, 2,4-Dinitrophenyl acetate]", 1.2]
]}

---

molecular target: EEF2 Elongation factor 2 (Homo sapiens, UniProt P13639); construct: isoTOP-ABPP experiments performed in cell lysates (in vitro); endogenous in cells; host or cells: soluble proteome of human cancer cell lines (MDA-MB-231; Ramos and Jurkat also prepared); experiment: competitive isoTOP-ABPP; format: binding; conditions: P13639_K235; 50 uM, 231 sol, in vitro
Catalogue of R value (DMSO/fragment) for probe 1 labeling readings, one per entry.
result_type: R value (DMSO/fragment) for probe 1 labeling

{"columns": ["molecule", "data_value"],
 "data": [
  ["O=C(CCc1cn(-c2ccccc2)nc1-c1ccccc1)Oc1c(F)c(F)c(F)c(F)c1F [fragment 19]", 1.2],
  ["Cn1cc(CC(=O)Oc2c(F)c(F)c(F)c(F)c2F)c2ccccc21 [fragment 22]", 2.9],
  ["COc1cc(CCC(=O)Oc2c(F)c(F)c(F)c(F)c2F)cc(OC)c1OC [fragment 23]", 1.6],
  ["O=C(Oc1c(F)c(F)c(F)c(F)c1F)C(c1ccccc1)c1ccccc1 [fragment 20, Pentafluorophenyl 2,2-diphenylacetate]", 1.1],
  ["O=C(Oc1c(F)c(F)c(F)c(F)c1F)c1cc(C(F)(F)F)cc(C(F)(F)F)c1 [fragment 21]", 1.1]
]}

---

molecular target: OLA1 Obg-like ATPase 1 (Homo sapiens); construct: endogenous in cells; host or cells: MDA-MB-231 (soluble fraction of lysate); assay: competitive isoTOP-ABPP; type: binding; conditions: 50 uM, in vitro, sol, 231
Catalogue of isoTOP-ABPP ratio (R) at liganded lysine Q9NTK5_K248 readings, one per entry.
result_type: isoTOP-ABPP ratio (R) at liganded lysine Q9NTK5_K248

{"columns": ["compound", "data_value"],
 "data": [
  ["O=C(Oc1ccc([N+](=O)[O-])cc1[N+](=O)[O-])c1ccc2ccccc2n1", 1.0],
  ["O=C(Oc1ccc([N+](=O)[O-])cc1[N+](=O)[O-])C1CCN(C(=O)OCc2ccccc2)CC1", 0.9],
  ["O=C(CC12CC3CC(CC(C3)C1)C2)Oc1ccc([N+](=O)[O-])cc1[N+](=O)[O-]", 0.9],
  ["O=C(Oc1ccc([N+](=O)[O-])cc1[N+](=O)[O-])c1ccccc1Nc1cccc(C(F)(F)F)c1", 0.9],
  ["O=C(Oc1ccc([N+](=O)[O-])cc1[N+](=O)[O-])C(c1ccccc1)(c1ccccc1)c1ccccc1 [fragment 42, 2,4-Dinitrophenyl 2,2,2-triphenylacetate]", 1.0],
  ["CC(C)(C)OC(=O)NCCCC(=O)Oc1ccc([N+](=O)[O-])cc1[N+](=O)[O-]", 1.0]
]}

All figures here come from patent US20210255193A1.
